test system: Candida species; assay: Anticandidal broth microdilution, results summarised over all strains; format: cell-based; conditions: Candida, summary over all four Candida strains; read-out: MIC50 against Candida species
Quantity name: MIC50

Some molecules with recorded MIC50:
# Molecule smiles, Experimental target, Quantity name, Result
measured = [
    ("CCn1c(SCC(=O)c2ccc(F)cc2F)nnc1-c1ccc(-c2nc3ccc(F)cc3[nH]2)cc1", "Candida species", "MIC50", "0.78 to 1.56 µg/mL"),
    ("Cn1c(SCC(=O)c2ccc(F)cc2)nnc1-c1ccc(-c2nc3ccc(F)cc3[nH]2)cc1", "Candida species", "MIC50", "0.78 µg/mL"),
    ("Cn1c(SCC(=O)c2ccc(Cl)cc2Cl)nnc1-c1ccc(-c2nc3ccc(Cl)cc3[nH]2)cc1", "Candida species", "MIC50", "1.56 to 3.12 µg/mL"),
    ("Cn1c(SCC(=O)c2ccc(Cl)cc2)nnc1-c1ccc(-c2nc3ccc(F)cc3[nH]2)cc1", "Candida species", "MIC50", "1.56 to 3.12 µg/mL"),
    ("Cn1c(SCC(=O)c2ccc(F)cc2)nnc1-c1ccc(-c2nc3ccc(Cl)cc3[nH]2)cc1", "Candida species", "MIC50", "0.78 to 1.56 µg/mL"),
    ("CCn1c(SCC(=O)c2ccc(F)cc2F)nnc1-c1ccc(-c2nc3ccc(Cl)cc3[nH]2)cc1", "Candida species", "MIC50", "0.78 to 1.56 µg/mL"),
    ("Cn1c(SCC(=O)c2ccc(F)cc2F)nnc1-c1ccc(-c2nc3ccc(Cl)cc3[nH]2)cc1", "Candida species", "MIC50", "0.78 to 1.56 µg/mL"),
]

Okay, now this molecule:
Quick one: MIC50 for CCn1c(SCC(=O)c2ccc(F)cc2)nnc1-c1ccc(-c2nc3ccc(Cl)cc3[nH]2)cc1 ?
0.78 to 1.56 µg/mL

----------
melting point values, listed per item
Just the number in °C, nothing appended.

# Compound, Quantitative readout
measured = [
    ("CCn1c(SCC(=O)c2ccc(F)cc2F)nnc1-c1ccc(-c2nc3ccc(Cl)cc3[nH]2)cc1 [Compound 5t]", 250.6),
    ("Cn1c(SCC(=O)c2ccc(Cl)cc2Cl)nnc1-c1ccc(-c2nc3ccc(F)cc3[nH]2)cc1 [Compound 5x]", 228.5),
    ("CCn1c(SCC(=O)c2ccc(Cl)cc2)nnc1-c1ccc(-c2nc3ccc(Cl)cc3[nH]2)cc1 [Compound 5q]", 252.2),
    ("Cn1c(SCC(=O)c2ccccc2)nnc1-c1ccc(-c2nc3ccccc3[nH]2)cc1 [Compound 5a]", 269.5),
    ("CCn1c(SCC(=O)c2ccc(F)cc2F)nnc1-c1ccc(-c2nc3ccc(F)cc3[nH]2)cc1 [Compound 5ad]", 234.2),
]

Quick one: melting point for Cn1c(SCC(=O)c2ccc(F)cc2)nnc1-c1ccc(-c2nc3ccc(Cl)cc3[nH]2)cc1 [Compound 5m] ?
274.5

Note, next up: Cn1c(SCC(=O)c2ccc(Cl)cc2Cl)nnc1-c1ccc(-c2nc3ccc(Cl)cc3[nH]2)cc1 [Compound 5n]
274.2

Note, next up: CCn1c(SCC(=O)c2ccc(F)cc2F)nnc1-c1ccc(-c2nc3ccccc3[nH]2)cc1 [Compound 5j]
238.2

----------
system: Candida species; assay: Anticandidal broth microdilution, results summarised over all strains; format: cell-based; settings: Candida, summary over all four Candida strains; read-out: MIC50 against Candida species
Quantity name: MIC50

Some compounds with recorded MIC50:
# Compound, MIC50
measured = [
    ("Cn1c(SCC(=O)c2ccc(F)cc2F)nnc1-c1ccc(-c2nc3ccc(F)cc3[nH]2)cc1 [Compound 5y]", "0.78 to 1.56 µg/mL"),
    ("CCn1c(SCC(=O)c2ccc(Cl)cc2Cl)nnc1-c1ccc(-c2nc3ccc(F)cc3[nH]2)cc1 [Compound 5ac]", "1.56 to 3.12 µg/mL"),
    ("CCn1c(SCC(=O)c2ccc(F)cc2)nnc1-c1ccc(-c2nc3ccc(F)cc3[nH]2)cc1 [Compound 5ab]", "0.78 to 1.56 µg/mL"),
]

Okay, now this compound:
Quick one: MIC50 for CCn1c(SCC(=O)c2ccc(Cl)cc2Cl)nnc1-c1ccc(-c2nc3ccc(Cl)cc3[nH]2)cc1 [Compound 5s] ?
1.56 to 3.12 µg/mL
